- assayed-system: T1, human BACE1 ECD
- T1 construct: analyte of the Octet assay (200 nM) and enzyme of the first short substrate assay; also called human BACE1 extracellular domain
- T1 sequence (single chain, as listed by the source limits assumed): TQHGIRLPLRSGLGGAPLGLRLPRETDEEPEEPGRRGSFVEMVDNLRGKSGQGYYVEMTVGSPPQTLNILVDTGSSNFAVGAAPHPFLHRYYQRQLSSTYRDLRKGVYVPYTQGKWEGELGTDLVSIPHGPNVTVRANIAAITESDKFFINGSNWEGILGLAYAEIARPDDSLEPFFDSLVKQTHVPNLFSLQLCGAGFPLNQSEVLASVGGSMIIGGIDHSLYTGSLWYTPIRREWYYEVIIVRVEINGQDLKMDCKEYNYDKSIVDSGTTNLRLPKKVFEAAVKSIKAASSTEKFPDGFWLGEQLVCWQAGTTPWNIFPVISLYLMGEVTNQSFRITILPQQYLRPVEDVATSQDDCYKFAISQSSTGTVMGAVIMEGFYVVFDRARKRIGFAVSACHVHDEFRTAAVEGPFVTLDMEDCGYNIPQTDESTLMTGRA
- assay: Octet, pH 7.5;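 also: antibodies captured on anti-human capture sensor tips, dissociation monitored in PBS with BSA, Kd obtained from kinetic fit to a one-to-one binding model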
measurement-type: Kd

Example cases with answers are listed next.
[
  {
    "binder": "6297 (antibody, V domains shown, anti-BACE1 IgG) VH: QLQLQESGPGLVKPSETLSLTCTVSGGPISSSSYYWGWIRQPPGKGLEWIGNIYYSGSTYYNPSLRGRVTISVDTSKNQFSLKLSSVTAADTAVYYCARLGHGYNYFDLWGRGTLVTVSS VL: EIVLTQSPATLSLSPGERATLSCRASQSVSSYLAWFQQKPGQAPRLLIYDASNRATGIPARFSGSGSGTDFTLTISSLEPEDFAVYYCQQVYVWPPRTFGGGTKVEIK",
    "data-value": "0.4 nM"
  },
  {
    "binder": "5990 (antibody, V domains shown, anti-BACE1 IgG) VH: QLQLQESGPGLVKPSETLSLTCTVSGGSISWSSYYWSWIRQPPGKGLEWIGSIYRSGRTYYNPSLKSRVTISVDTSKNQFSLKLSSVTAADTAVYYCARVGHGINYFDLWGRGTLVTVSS VL: EIVLTQSPATLSLSPGERATLSCRASRSVNSYLAWYQQKPGQAPRLLIYDASKRATGIPARFSGSGSGTDFTLTISSLEPEDFAVYYCQQVYTWPPRTFGGGTKVEIK",
    "data-value": "< 0.18 nM"
  }
]

Find the measured Kd of 5987 (antibody, V domains shown, anti-BACE1 IgG) VH: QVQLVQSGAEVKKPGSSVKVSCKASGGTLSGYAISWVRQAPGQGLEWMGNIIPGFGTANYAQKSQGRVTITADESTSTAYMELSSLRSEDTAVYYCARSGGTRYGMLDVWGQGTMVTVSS VL: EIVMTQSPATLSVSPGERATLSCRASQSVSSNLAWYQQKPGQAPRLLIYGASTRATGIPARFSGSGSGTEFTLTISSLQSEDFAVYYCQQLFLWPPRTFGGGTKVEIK and report it. < 0.32 nM
